Origin of the recorded values: ChEMBL document CHEMBL5325390

Test system: metallo-β-lactamase VIM-2 (Pseudomonas aeruginosa)
Experiment: Inhibition of VIM-2 (unknown origin) expressed in Escherichia coli BL21(DE3) assessed as substrate hydrolysis at 100 uM by UV-Vis spectrophotometric analysis relative to control
measured.quantity: inhibition

Reference set, count: 5
Cc1ccccc1-c1n[nH]c(=S)n1CCc1ccc(OCc2ccccc2)cc1; < 30%
S=c1[nH]nc(-c2ccccc2)n1[C@@H]1C[C@H]1c1ccccc1; 30%
COc1ccc(O)c(-c2n[nH]c(=S)n2CCc2ccc(OCc3ccccc3)cc2)c1; < 30%
S=c1[nH]nc(-c2cc3ccccc3[nH]2)n1-c1ccc(OCc2ccccc2)cc1; < 30%
S=c1[nH]nc(Cc2ccccc2)n1Cc1ccccc1; < 30%

Query string: Give me measured inhibition, please, for this compound: CC(Cn1c(-c2ccccc2)n[nH]c1=S)c1ccccc1 (centres undefined)
Result string: < 30%

Query string: Return inhibition for the following compound: "S=c1[nH]nc(Cc2ccccc2)n1CCCc1ccccc1"
Result string: < 30%

Query string: Consider the compound "S=c1[nH]nc(-c2cccc(-c3ccccc3)c2)n1[C@@H]1C[C@H]1c1ccccc1" . State its measured inhibition.
Result string: < 30%

###

Assay: Binding affinity to VIM-2 (unknown origin) expressed in Escherichia coli BL21(DE3) assessed as inhibition constant by measuring rate of substrate hydrolysis by UV-Vis spectrophotometric analysis
The entries below come with measured Ki values attached.
Quick note: give the figure in µM, leave out the unit.

Query string: Using known records, supply Ki for "O=C(O)c1ccc(Cn2c(-c3ccccc3)n[nH]c2=S)cc1"
Result string: 2.7

Query string: Recall and state the measured Ki for "Oc1ccc(CCn2c(-c3cc(-c4ccccc4)ccc3O)n[nH]c2=S)c(O)c1" .
Result string: 1.9

Query string: Assign Ki to the following record: "Oc1ccc(/C=N/n2c(-c3ccccc3-c3ccccc3)n[nH]c2=S)c(O)c1"
Result string: 4.5

Query string: Identify measured Ki corresponding to "Oc1ccc(CCn2c(-c3cccc(-c4ccccc4)c3)n[nH]c2=S)c(O)c1"
Result string: 1.3

Query string: Answer with the recorded Ki for the molecule listed here: "COc1ccc(O)c(-c2n[nH]c(=S)n2Cc2ccccc2)c1"
Result string: 4

###

Target: Angiotensin-converting enzyme (Oryctolagus cuniculus, UniProt P12822)
Sequence (P12822 whole entry): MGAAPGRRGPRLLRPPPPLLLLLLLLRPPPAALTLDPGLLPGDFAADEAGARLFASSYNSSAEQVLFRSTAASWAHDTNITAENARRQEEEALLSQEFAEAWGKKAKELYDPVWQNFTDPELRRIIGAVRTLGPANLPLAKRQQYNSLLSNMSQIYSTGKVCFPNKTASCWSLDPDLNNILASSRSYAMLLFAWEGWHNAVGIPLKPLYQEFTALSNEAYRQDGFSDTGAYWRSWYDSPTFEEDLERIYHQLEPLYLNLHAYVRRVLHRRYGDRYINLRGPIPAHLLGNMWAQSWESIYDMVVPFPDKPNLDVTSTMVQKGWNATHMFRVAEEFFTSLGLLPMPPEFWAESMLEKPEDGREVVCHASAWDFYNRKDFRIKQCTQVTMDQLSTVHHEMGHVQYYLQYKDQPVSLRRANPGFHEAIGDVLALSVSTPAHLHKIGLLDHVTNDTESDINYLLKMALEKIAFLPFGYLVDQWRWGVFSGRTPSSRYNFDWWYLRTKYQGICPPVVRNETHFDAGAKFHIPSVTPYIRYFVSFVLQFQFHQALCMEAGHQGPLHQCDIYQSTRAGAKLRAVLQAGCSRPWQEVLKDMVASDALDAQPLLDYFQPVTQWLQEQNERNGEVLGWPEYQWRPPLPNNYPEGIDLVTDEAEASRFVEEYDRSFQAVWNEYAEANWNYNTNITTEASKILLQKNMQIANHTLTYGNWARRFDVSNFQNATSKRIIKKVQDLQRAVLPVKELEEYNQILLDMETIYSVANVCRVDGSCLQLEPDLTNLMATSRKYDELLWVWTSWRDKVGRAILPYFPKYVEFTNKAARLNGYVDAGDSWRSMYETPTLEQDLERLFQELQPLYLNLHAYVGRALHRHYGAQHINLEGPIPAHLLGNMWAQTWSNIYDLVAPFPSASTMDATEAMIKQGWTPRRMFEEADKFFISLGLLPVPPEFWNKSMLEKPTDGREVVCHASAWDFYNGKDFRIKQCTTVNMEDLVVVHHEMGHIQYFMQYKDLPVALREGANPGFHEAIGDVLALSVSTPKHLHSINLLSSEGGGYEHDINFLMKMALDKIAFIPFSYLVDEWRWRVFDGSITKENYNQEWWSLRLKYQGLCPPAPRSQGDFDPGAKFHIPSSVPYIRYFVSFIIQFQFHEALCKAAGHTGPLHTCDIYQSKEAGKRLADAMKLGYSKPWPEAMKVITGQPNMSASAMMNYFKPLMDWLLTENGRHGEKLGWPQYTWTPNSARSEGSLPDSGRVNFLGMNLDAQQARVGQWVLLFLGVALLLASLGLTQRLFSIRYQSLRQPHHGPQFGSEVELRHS
measured.quantity: Ki (µM)
Give the value, in units of µM, as a plain number.

Oc1ccc(CCn2c(-c3cccc(-c4ccccc4)c3)n[nH]c2=S)c(O)c1; 55

Alright, here's another molecule for you.
Query string: Provide measured Ki value, entry: "S=c1[nH]nc(-c2ccccc2)n1CCCc1ccccc1"
Result string: 30
